Test: Drug level in rat plasma at 10 mg/kg, ip after 1 hr
Type: ADME, organism-based
Set-up: dose 10 mg/kg, route intraperitoneal
Details: read-out: Drug uptake
recorded metric: concentration at 1 h (nM)
Just the number please, in nM, no unit attached.

Request: Could you share which concentration at 1 h value was measured for Cc1ccc(-c2cn(Cc3ccccc3)c3c2CNCC3)cc1 ?
Response: 3000

* * *

Target: 5-hydroxytryptamine receptor 7 (Rattus norvegicus)
Sequence (P32305 whole entry): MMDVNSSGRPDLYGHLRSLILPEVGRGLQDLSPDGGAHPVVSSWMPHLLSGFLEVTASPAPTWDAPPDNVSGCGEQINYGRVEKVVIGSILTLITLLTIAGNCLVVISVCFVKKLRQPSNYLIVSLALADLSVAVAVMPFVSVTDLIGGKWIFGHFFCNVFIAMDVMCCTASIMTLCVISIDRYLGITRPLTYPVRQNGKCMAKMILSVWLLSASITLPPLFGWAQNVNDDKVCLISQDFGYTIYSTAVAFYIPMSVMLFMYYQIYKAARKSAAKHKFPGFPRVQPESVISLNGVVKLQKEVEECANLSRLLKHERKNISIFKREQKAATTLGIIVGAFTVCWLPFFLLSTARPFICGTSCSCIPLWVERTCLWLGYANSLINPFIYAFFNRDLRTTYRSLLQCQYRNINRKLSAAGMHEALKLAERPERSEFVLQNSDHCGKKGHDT
Experiment: Displacement of [3H]5-CT from rat recombinant 5HT7 receptor expressed in HEK293 cells after 60 mins
recorded metric: pKi
To interpret pKi, take it as minus log10 of a concentration measured in moles per litre.

Request: Could you share which pKi value was measured for CN1CCc2c(c(-c3ccc(Cl)cc3)cn2Cc2ccccc2)C1 ?
Response: 7.44

Request: Clc1cccc(-c2cn(Cc3ccccc3)c3c2CNCC3)c1 , same question.
Response: 5.00

Request: Clc1ccc(-c2cn(Cc3ccccc3)c3c2CNCC3)c(Cl)c1 , same question.
Response: 5.68

Request: Fc1ccc(-c2cn(Cc3ccccc3)c3c2CNCC3)cc1 , same question.
Response: 7.35

Request: CCN1CCc2c(c(-c3ccc(Cl)cc3)cn2Cc2ccccc2)C1 , same question.
Response: 6.60

Request: Clc1ccc(-c2cn(Cc3cccc(Cl)c3)c3c2CNCC3)cc1 , same question.
Response: 6.27
